pIC50: −log10 of the molar value. Where a name gives a salt, the structure may show the parent alone.
Reported values: pIC50 for TNAP (Homo sapiens), one per item.
ASSAY ENDPOINT: pIC50

{"MOLECULE": "COc1ccc(-c2cnn3ccccc23)cc1S(=O)(=O)Nc1cnc2c(c1)C(=O)NCC2", "SUBJECT OF TEST": "TNAP (Homo sapiens)", "RESULT": "6.00 to 7.00"}
{"MOLECULE": "COc1ccc(-c2cn[nH]c2)cc1S(=O)(=O)Nc1cnc2c(c1)C(=O)NCC2", "SUBJECT OF TEST": "TNAP (Homo sapiens)", "RESULT": "6.00 to 7.00"}
{"MOLECULE": "O=C1COc2ccc(S(=O)(=O)Nc3cnc4c(c3)C(=O)NCC4)cc2N1", "SUBJECT OF TEST": "TNAP (Homo sapiens)", "RESULT": "≤ 6.00"}
{"MOLECULE": "O=C1NCCc2ncc(NS(=O)(=O)c3cc(F)ccc3Br)cc21", "SUBJECT OF TEST": "TNAP (Homo sapiens)", "RESULT": "6.00 to 7.00"}
{"MOLECULE": "COc1ccc(OC)c(S(=O)(=O)Nc2cnc3c(c2)C(=O)NC3)c1", "SUBJECT OF TEST": "TNAP (Homo sapiens)", "RESULT": "7.00 to 8.00"}
{"MOLECULE": "COc1ccc(C2=CCCOC2)cc1S(=O)(=O)Nc1cnc2c(c1)C(=O)NCC2", "SUBJECT OF TEST": "TNAP (Homo sapiens)", "RESULT": "7.00 to 8.00"}
{"MOLECULE": "COc1ccc(-c2cnn(C(C)C)c2)cc1S(=O)(=O)Nc1cnc2c(c1)C(=O)NCC2", "SUBJECT OF TEST": "TNAP (Homo sapiens)", "RESULT": "7.00 to 8.00"}
{"MOLECULE": "COc1ccc(Br)cc1S(=O)(=O)Nc1cnc2c(c1)C(=O)N(C)CC2", "SUBJECT OF TEST": "TNAP (Homo sapiens)", "RESULT": "6.00 to 7.00"}
{"MOLECULE": "COc1ccc(F)cc1S(=O)(=O)Nc1cnc2c(c1)C(=O)NCCC2", "SUBJECT OF TEST": "TNAP (Homo sapiens)", "RESULT": "6.00 to 7.00"}
{"MOLECULE": "COc1ccc(-c2cnn(C3CCN(C(=O)OC(C)(C)C)CC3)c2)cc1S(=O)(=O)Nc1cnc2c(c1)C(=O)NCC2", "SUBJECT OF TEST": "TNAP (Homo sapiens)", "RESULT": "6.00 to 7.00"}
{"MOLECULE": "COc1ccc(C2=CCN(C(C)=O)CC2)cc1S(=O)(=O)Nc1cnc2c(c1)C(=O)NCC2", "SUBJECT OF TEST": "TNAP (Homo sapiens)", "RESULT": "6.00 to 7.00"}
{"MOLECULE": "CCOC(=O)C(C)(C)n1cc(-c2ccc(OC)c(S(=O)(=O)Nc3cnc4c(c3)C(=O)NCC4)c2)cn1", "SUBJECT OF TEST": "TNAP (Homo sapiens)", "RESULT": "6.00 to 7.00"}
{"MOLECULE": "CCCCn1cc(-c2ccc(OC)c(S(=O)(=O)Nc3cnc4c(c3)C(=O)NCC4)c2)cn1", "SUBJECT OF TEST": "TNAP (Homo sapiens)", "RESULT": "7.00 to 8.00"}
{"MOLECULE": "COC(=O)Cc1ccc(-c2ccc(OC)c(S(=O)(=O)Nc3cnc4c(c3)C(=O)NC4)c2)cc1", "SUBJECT OF TEST": "TNAP (Homo sapiens)", "RESULT": "6.00 to 7.00"}
{"MOLECULE": "COc1ccc(-c2cnn(C3CCN(C)CC3)c2)cc1S(=O)(=O)Nc1cnc2c(c1)C(=O)NCC2", "SUBJECT OF TEST": "TNAP (Homo sapiens)", "RESULT": "≤ 6.00"}
{"MOLECULE": "COc1ccc(C2=CCNCC2)cc1S(=O)(=O)Nc1cnc2c(c1)C(=O)NCC2 [Example 53, hydrochloride]", "SUBJECT OF TEST": "TNAP (Homo sapiens)", "RESULT": "6.00 to 7.00"}
